assayed_system: T1, TRBP-ΔC (UniProt Q15633-2 9-215)
T1 sequence: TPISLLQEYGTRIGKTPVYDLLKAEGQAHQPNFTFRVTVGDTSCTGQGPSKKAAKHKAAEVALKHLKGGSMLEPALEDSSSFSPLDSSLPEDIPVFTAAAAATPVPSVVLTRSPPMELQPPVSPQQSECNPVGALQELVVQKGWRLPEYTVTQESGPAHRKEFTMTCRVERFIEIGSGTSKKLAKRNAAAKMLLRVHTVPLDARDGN
assay_details: EMSA; apparent Kd; nH 2.5; 50 mM sodium cacodylate pH 7.0, 50 mM potassium glutamate, 5% glycerol; EMSA 0.5 pM RNA, 30 min at room temperature, gel 0.25X TBE at 10 C; CD at 10 C with 5-15 uM RNA
condition_details: protein: recombinant; label: 5'-32P; hairpin, 16 bp stem, U8 loop
pKd: −log10 of the molar value.
measurement_kind: pKd

- binder: "GUCAGCAGUGCCUUAGUUUUUUUUCUAAGGCACUGCUGAC (structured_RNA) [ds16-octa-U]"
  measurement_kind: "pKd"
  number: 6.39
